Each recorded value in this set is attributed to PubChem BioAssay.

- system_under_test: L-lactate dehydrogenase (Plasmodium falciparum (isolate CDC / Honduras)) (UniProt Q27743)
- Sequence (Q27743 whole entry, looked up): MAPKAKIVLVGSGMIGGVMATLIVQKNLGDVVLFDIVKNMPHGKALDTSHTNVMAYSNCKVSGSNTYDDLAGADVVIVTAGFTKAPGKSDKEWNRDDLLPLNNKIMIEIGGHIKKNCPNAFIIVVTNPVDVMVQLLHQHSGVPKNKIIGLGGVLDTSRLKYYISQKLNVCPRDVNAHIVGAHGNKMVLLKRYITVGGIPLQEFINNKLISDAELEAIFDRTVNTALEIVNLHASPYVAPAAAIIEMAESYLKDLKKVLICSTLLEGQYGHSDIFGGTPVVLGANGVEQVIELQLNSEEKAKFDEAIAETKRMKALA
- assay_method_text: PfLDH activity inhibition – cell lysate, 3D7 strain, counter-screen for P. falciparum growth inhibition project (AID 2304);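 note: 0% = vehicle and 100% = reference inhibitor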
- condition_set: P. falciparum 3D7 crude extract, LDH APAD/NBT absorbance; at 2 µM; stronger effect = higher value
experimental_readout: inhibition (%)
State the answer as a number, implicitly in %.

Prompt line: Using the record for `CN1CCC[C@H]1COc1ccc(CN2CC[C@H](NC(=O)c3ccc(Cl)c(Cl)c3)C2)cc1Br` , report its inhibition.
Response line: -1

Prompt line: Any idea what its inhibition is? The compound is `NC(N)=Nc1nc(-c2cccc(NC(=O)Cc3ccccc3)c2)cs1`
Response line: -8

Prompt line: Fill in the blank: the reported inhibition of `Cc1ccc(NC(=O)c2ccc(Cl)cc2)cc1-c1ccc(C(=O)Nc2ccncc2)cc1` is ____.
Response line: 3

Prompt line: Request the reported inhibition associated with `NCCNC(=O)c1ccc(-c2cnc3[nH]cc(-c4ccc(C(N)=O)cc4)c3c2)cc1`
Response line: -2

Prompt line: What does the record list as inhibition for COc1ccc2nccc([C@@H](O)CN3CCC(NCc4cnc5snnc5c4)C(F)C3)c2c1 (stereo partly specified) ?
Response line: 2

Prompt line: inhibition lookup needed for `CCS(=O)(=O)c1ccc(/C(=N/OC)c2ccc[nH]2)cc1` , thanks.
Response line: -2

Prompt line: Give the measured inhibition of `CN(C)Cc1cccc(-c2cc3c(-c4cnn(C)c4)c(Cl)cnc3[nH]2)c1` .
Response line: -5

Prompt line: Please report the recorded inhibition for `Cc1ccccc1Cn1ccc2c3c(N)nc(N)nc3ccc21` .
Response line: -4

Prompt line: Looking for the measured inhibition of `NC(N)=NC(=O)Nc1ccc(Cl)c(C(F)(F)F)c1` , can you help?
Response line: 3

Prompt line: Any idea what inhibition was measured for `O=C(Nc1cc(C(F)(F)F)cc(C(F)(F)F)c1)Nc1ccc(Cl)c(Cl)c1` ?
Response line: 0

Prompt line: Dear colleague, I am looking for the recorded inhibition of the following compound: CN1CCCC(CN2CCN(Cc3ccc(-c4ccc(-c5nc6ccccc6[nH]5)s4)cc3)CC2)C1 (stereo unspecified)
Response line: -8

Prompt line: # inhibition lookup, item `Nc1nc(N)c(-c2ccccc2)c(=O)[nH]1`
Response line: 0

Prompt line: # query: inhibition of entry `CCS(=O)(=O)c1ccc(OC)c(Nc2nccc(-c3c(-c4cccc(NC(=O)c5c(F)cccc5F)c4)nn4ncccc34)n2)c1`
Response line: -5

Prompt line: Value lookup for inhibition; key = `CC(=NNC(=S)NCc1ccco1)c1ccccn1`
Response line: -6

Prompt line: // returns reported inhibition for input `NS(=O)(=O)c1cccc(Nc2nccc(-c3cnn4ncccc34)n2)c1`
Response line: 0

Prompt line: So what does the record say about inhibition for `CCn1c(-c2nonc2N)nc2c(-c3cccc(NC(=O)Nc4ccc(C(F)(F)F)cc4)c3)ncc(OCCCN)c21` ?
Response line: 6

---

- assay_method_text: antimalarial activity against Dd2 strain (AID 2302);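 note: 0% = DMSO untreated growth and 100% = chloroquine plus artemisinin killed control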
- condition_set: P. falciparum Dd2 in RBCs, LDH growth readout, 72 h; at 2 µM
The source made the active and inactive calls.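 How the source made its calls: active means growth inhibition above 50% at the single 2 µM test dose, taken to imply half-maximal potency below 2 µM; inactive means the rest.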
Would you mind answering with one of these outcomes? YES (active), NO (inactive)

Prompt line: Please share the test call associated with `CCn1c(-c2nonc2N)nc2c(-c3cccc(NC(=O)Nc4ccc(Cl)cc4)c3)ncc(OCCCN)c21` .
Response line: YES

Prompt line: Recorded test outcome, item COc1cc(C(=O)N2CCOC(CCN3CCC[C@H]3C(=O)Nc3ccccc3)(c3ccc(Cl)c(Cl)c3)C2)cc(OC)c1OC (stereo not given in full)
Response line: YES

Prompt line: How did this test come out for `Cc1cccc2[nH]c(-c3ccc(-c4cccc(NC(=O)CCc5cnc[nH]5)c4)cc3)nc12` ?
Response line: NO

Prompt line: Returns: the outcome recorded for CCCN1CCN(CC(O)CNC(=O)Nc2ccc(Cl)cc2)CC1 (stereo not given) in this assay.
Response line: YES

Prompt line: Dear all, I need the recorded test outcome for `CCN(CC)CCN(CCCc1ccc(-c2ccc(C(F)(F)F)cc2)cc1)C(=O)Cn1c(CCc2cccc(F)c2F)nc(=O)c2ccccc21` , thank you.
Response line: NO

Prompt line: How did this test come out for `Cc1cc(Nc2ncc(Cl)c(Nc3ccccc3C(N)=O)n2)n[nH]1` ?
Response line: YES

Prompt line: Could you kindly confirm the outcome this assay logged for `CC(C)C(=O)ONC1=NC(C)(C)N(OCCCOc2cc(Cl)c(Cl)cc2Cl)C(NOC(=O)C(C)C)=N1` ?
Response line: YES

Prompt line: Dear colleague, could you share the recorded outcome for `O=c1cc(NCCCNCc2[nH]c3cc(Cl)ccc3c2Cl)[nH]c2ccccc12` when you have a moment?
Response line: NO

Prompt line: Dear colleague, could you share the recorded outcome for O=C(Nc1cccc(C(F)(F)F)c1)NC1CCN(c2ccnc3cc(Cl)ccc23)C1 (stereo not given) when you have a moment?
Response line: YES

Prompt line: I would be grateful if you could indicate the recorded call for `NS(=O)(=O)CCc1cccc(Nc2nccc(-c3c(-c4cccc(NC(=O)c5c(F)cccc5F)c4)nn4ccccc34)n2)c1` .
Response line: YES

---

- assay_method_text: differential killing of epithelial or mesenchymal cells, primary screen, imaging, PC-3E GFP, TEM4-18 mCherry, co-culture (AID 1345086);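 note: cells exposed to compound for 72 h before imaging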
- condition_set: imaging cell counts, measured here: mesenchymal TEM4-18 mCherry cell survival, at 1 µM
Numbered stars: 1 amine (or outer) side, 2 acyl side, 3 side chain; on linkers, the order of the positions; unused ones are H or OH. Bridge positions count the residues as written; N and C are the ends. Square brackets hold non-standard residues; d marks the D form. Peptide text beside a SMILES is read from it. I, II: the chains in the order shown. Actinocin(9to1) = Cc1c2oc3c(C)ccc(C(=O)[*:1])c3nc-2c(C(=O)[*:2])c(N)c1=O; NMeV = CN[CH](C(=O)O)C(C)C; Sar = CNCC(=O)O
For each entry below, report its normalised cell number value.
Lab note: record the figure alone, no unit after it.

Prompt line: Given `C[C@H]1[C@H](OC(=O)CCC(=O)O)O[C@@H]2O[C@]3(C)CC[C@H]4[C@H](C)CC[C@@H]1[C@@]24OO3` , state its recorded normalised cell number.
Response line: 0.55

Prompt line: Quick one: normalised cell number of `CC(=O)c1cc2ccccc2oc1=O` ?
Response line: 0.98

Prompt line: Return reported normalised cell number; argument: CC(=O)OCC(=O)[C@H]1CCC2C3CC=C4C[C@@H](O)CC[C@]4(C)C3CC[C@@]21C (some centres undefined)
Response line: 0.93

Prompt line: Please report the recorded normalised cell number for C[C@]12CCC3c4ccc(O)cc4CCC3C1CCC2=O (some centres undefined) .
Response line: 0.99

Prompt line: # lookup: normalised cell number of C#C[C@]1(O)CCC2C3CCC4=CC(=O)CC[C@@H]4C3CCC21CC (some centres undefined)
Response line: 1.21

Prompt line: Entry C/C=C(/C)C(=O)O[C@@H]1[C@H](OC(C)=O)[C@@]2(CO)C(CC1(C)C)C1=CCC3[C@@]4(C)CC[C@H](O[C@@H]5O[C@H](C(=O)O)[C@@H](O[C@@H]6O[C@H](CO)[C@@H](O)[C@H](O)[C@H]6O)[C@H](O)[C@H]5O[C@@H]5O[C@H](CO)[C@@H](O)[C@H](O)[C@H]5O)[C@](C)(CO)C4CC[C@@]3(C)[C@]1(C)C[C@H]2O (some centres undefined) has what normalised cell number?
Response line: 0.85

Prompt line: Endpoint output: normalised cell number of C[C@H](CCC(=O)NCC(=O)O)[C@H]1CCC2C3C(C[C@H](O)[C@@]21C)[C@@]1(C)CC[C@@H](O)CC1C[C@H]3O (some centres undefined) . Value?
Response line: 1.01

Prompt line: Consider the molecule CC1CCCC(O)/C=C/C(O)C(=O)c2c(O)cc(O)cc2CC(=O)O1 (centres undefined) and give its measured normalised cell number.
Response line: 0.99

Prompt line: Using the record for COC(=O)C1O[C@H](OCc2ccccc2)[C@@H](OC(=O)c2ccccc2)[C@@H](OC(=O)c2ccccc2)C1O (some centres undefined) , report its normalised cell number.
Response line: 1.2

Prompt line: normalised cell number for `CCCCCCCC/C=C\CCCCCCCC(=O)O` ?
Response line: 0.96

Prompt line: Find the recorded normalised cell number belonging to CC(=O)OCC(=O)[C@@]1(O)CCC2C3CCC4=CC(=O)C=CC4(C)C3[C@@H](O)C[C@@]21C (some centres undefined) and report it.
Response line: 1.41

Prompt line: Recorded normalised cell number of Cc1c2oc3c(C)ccc(C(=O)OC(C)C4NC(=O)C(C(C)C)N(C)C(=O)CN(C)C(=O)C5CCCN5C(=O)C(C(C)C)NC4=O)c3nc-2c(C(=O)OC(C)C2NC(=O)C(C(C)C)N(C)C(=O)CN(C)C(=O)C3CCCN3C(=O)C(C(C)C)NC2=O)c(N)c1=O (centres undefined) (I: cyclo([Sar][NMeV]TVP) / II: cyclo([Sar][NMeV]TVP); linker I:3-II:3 via Actinocin(9to1); configuration not given here) , please.
Response line: 0.49

Prompt line: Would you mind telling me what normalised cell number value was observed for `CC(C)(C)NC[C@H](O)COc1ccccc1C1CCCC1` ?
Response line: 1.17

Prompt line: Suppose we examine the molecule CC(CC(=O)N1CCOC1=O)N1C(=S)OC[C@@H]1Cc1ccccc1 (some centres undefined) ; what normalised cell number value has been reported?
Response line: 0.95

Prompt line: Item `O=c1cc(-c2ccccc2)oc2cc(O[C@@H]3O[C@H](CO)[C@@H](O)[C@H](O)[C@H]3O)c(O)c(O)c12` has what recorded normalised cell number?
Response line: 1

Prompt line: Requested field: normalised cell number. Item: CC(=O)OC1CCC2C3CCc4cc(O)ccc4C3CCC12C (centres undefined)
Response line: 1.05

Prompt line: Fill in the blank: the reported normalised cell number of `COc1c(N2CC[C@@H](CN)C2)c(F)cc2c(=O)c(C(=O)O)cn(Cc3ccc(-c4ccccc4)cc3)c12` is ____.
Response line: 0.98

Prompt line: Please report the recorded normalised cell number for `COc1c(N2CC[C@@H](CN)C2)c(F)cc2c(=O)c(C(=O)NO)cn(C3CC3)c12` .
Response line: 1.15

Prompt line: State the recorded normalised cell number for this entry: C=C(C)[C@@H]1CC[C@]2(C)CC[C@]3(C)[C@@H](CCC4[C@@]5(C)CC[C@H](O)C(C)(C)C5CC[C@]43C)C12 (some centres undefined)
Response line: 1.07
